The origin of these recorded values is ChEMBL document CHEMBL5608163.

Test system: Enterococcus faecium
assay-comment: Antibacterial activity against vancomycin resistant Enterococcus faecium ATCC 700221 assessed as inhibition of bacterial growth incubated for 48 hrs by CLSI-based broth microdilution assay
Assay type: functional
Square brackets hold non-standard residues; d marks the D form. Peptide text beside a SMILES is read from it. 2Nal = N[C@@H](Cc1ccc2ccccc2c1)C(=O)O; hIle = CC[C@H](C)C[C@H](N)C(=O)O; Cha = N[C@@H](CC1CCCCC1)C(=O)O
Recorded MIC for the following molecules
Respond numerically; units are µM and should not be typed.

molecule	result-unit	MIC
CC[C@H](C)C[C@H](NC(=O)[C@H](CCCNC(=N)N)NC(=O)[C@H](CCCCN)NC(=O)[C@H](CC(C)C)NC(=O)[C@H](CC1CCCCC1)NC(=O)CN)C(=O)N[C@@H](CCCCN)C(=O)N[C@H](C(=O)N[C@@H](CC(C)C)C(=O)N[C@@H](CC(C)C)C(N)=O)[C@@H](C)O (H-G[Cha]LKR[hIle]KTLL-NH2)	µM	15.8

Please turn your attention to the following entry.
Field MIC (entry CC[C@H](C)[C@H](NC(=O)[C@H](CCCNC(=N)N)NC(=O)[C@H](CCCCN)NC(=O)[C@H](CC(C)C)NC(=O)[C@H](Cc1ccc2ccccc2c1)NC(=O)CN)C(=O)N[C@@H](CCCCN)C(=O)N[C@H](C(=O)N[C@@H](CC(C)C)C(=O)N[C@@H](CC(C)C)C(N)=O)[C@@H](C)O (H-G[2Nal]LKRIKTLL-NH2) ) reads 15.8
